Molecular target: HDAC1 enzyme (Homo sapiens)
Construct: prepared by transducing full length HDAC1 and HDAC6 genes into Sf-9 insect cells; GST; purchased SignalChem; host or cells: Sf-9 insect cells
Sequence (Q13547 whole entry): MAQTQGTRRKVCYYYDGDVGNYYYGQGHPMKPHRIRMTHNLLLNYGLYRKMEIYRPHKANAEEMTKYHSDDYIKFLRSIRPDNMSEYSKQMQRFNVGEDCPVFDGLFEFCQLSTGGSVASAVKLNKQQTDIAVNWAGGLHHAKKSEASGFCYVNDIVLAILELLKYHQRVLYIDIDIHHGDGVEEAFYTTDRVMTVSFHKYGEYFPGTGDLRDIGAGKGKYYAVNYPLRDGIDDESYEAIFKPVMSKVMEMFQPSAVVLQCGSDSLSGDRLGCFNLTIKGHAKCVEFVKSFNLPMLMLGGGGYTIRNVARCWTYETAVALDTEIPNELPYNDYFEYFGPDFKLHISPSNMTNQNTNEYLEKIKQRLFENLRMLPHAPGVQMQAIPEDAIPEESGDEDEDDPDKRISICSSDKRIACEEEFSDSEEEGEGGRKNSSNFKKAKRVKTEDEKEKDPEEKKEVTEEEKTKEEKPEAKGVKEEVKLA
Experiment: HDAC1 enzyme inhibitory assay (HDAC-Glo I/II Assay kit)
Assay type: biochemical
Conditions: 1 μM test compound; read-out: HDAC1 inhibitory rate (%) (1 μM)
readout type: inhibition at 1 µM (%)

I = N#Cc1ccccc1C(=O)N1CCOC[C@@H]1CNC(=O)c1ccc(-c2noc(C(F)(F)F)n2)cc1 [Example 43]
II = O=C(NC[C@@H]1COCCN1C(=O)C(F)(F)c1ccccc1)c1ccc(-c2noc(C(F)(F)F)n2)s1 [Example 265]
III = Cn1nc2ccccc2c1C(=O)N1CCOC[C@@H]1CC(=O)Nc1ccc(-c2noc(C(F)(F)F)n2)cc1 [Example 90]
Please list these in order of increasing inhibition at 1 µM. Thank you! Answer by writing out the labels in the requested order.
I, III, II
(I: 14%, III: 29%, II: 76%)

a = O=C(NCC1COCCN1C(=O)C1CCCCC1)c1ccc(-c2noc(C(F)(F)F)n2)s1 (stereo not shown) [Example 254]
b = O=C(NC[C@H]1COCCN1C(=O)N1CC2CCC(C1)O2)c1ccc(-c2noc(C(F)(F)F)n2)cc1 [Example 110]
Between a and b , which one has the lower reported inhibition at 1 µM value? Indicate your choice by writing its label.
b

I = Cn1nc(C(=O)N2CCOCC2CNC(=O)c2ccc(-c3noc(C(F)(F)F)n3)cc2)c2ccccc21 (stereo not shown) [Example 18]
II = Cc1oncc1C(=O)N1CCOC[C@@H]1CNC(=O)c1ccc(-c2noc(C(F)(F)F)n2)s1 [Example 259]
Between I and II , which one shows the larger inhibition at 1 µM value? Indicate your choice by writing its label.
II
(II: 25%, I: 9%)
